Tested on: soybean (G1)
PROTOCOL TEXT: Test Example 5: selectivity for a crop plant by soil treatment in upland field
Type: in vivo
Design: scale not given here
EXPERIMENTAL CONTEXT: dose 25 gai/10a, 21st day after treatment, index per Table 44
Recorded Gl (herbicidal effect index on crop) by entry
Note: the reply should be a number with no unit written.

# COMPOUND, TARGET OR SYSTEM, REPORTED RESULT
records = [
    ("CN(C(=O)Cc1ccc(Cl)cc1)C(c1cncnc1C(F)(F)F)C(C)(C)C (racemic)", "soybean (G1)", 0),
]

Which Gl (herbicidal effect index on crop) is reported for this compound? CCN(C(=O)Cc1ccc(Cl)cc1)C(c1cncnc1C(F)(F)F)C(C)C (racemic)
0

How about this compound: CCC(c1cncnc1C(F)(F)F)N(C)C(=O)Cc1ccc(F)cc1 (racemic)
0

---

Known melting point of a selection of molecules

Some molecules with known melting point results, for comparison:
# MOLECULE, MEASUREMENT NAME, REPORTED RESULT
rows = [
    ("CC(C)C(c1cncnc1C(F)(F)F)N(C)C(=O)N(C)c1ccccc1 (centres unmarked)", "melting point", "104 to 105 °C"),
    ("CC(C)C(c1cncnc1C(F)(F)F)N(C)C(=S)Cc1ccccc1 (centres unmarked)", "melting point", "93 to 94 °C"),
]

Can you look up the measured melting point of CC(C)C(c1cncnc1C=NO)N(C)C(=O)Cc1ccccc1 (centres unmarked) for me?
171 to 172 °C

Entry to check: CC(C(=O)N(C)C(c1cncnc1C(=O)O)C(C)C)c1ccc(Cl)cc1 (single isomer, unassigned)
168 to 170 °C

And then CC(C)C(c1cncnc1C(F)(F)F)N(C)C(=O)Cc1ccccn1 (centres unmarked) , what is it?
99 to 100 °C

Could you do the same for COCN(C(=O)Cc1ccc(Cl)cc1)C(c1cncnc1C(F)(F)F)C(C)C (centres unmarked) , please?
142 to 145 °C

Same again, this time with CC(C)C(c1cncnc1C#N)N(C)C(=O)Cc1ccccc1 (centres unmarked)
80 to 81 °C

One more molecule: CC(C)C(c1cncnc1C(F)(F)F)N(C)C(=O)Cc1ccccc1 (centres unmarked)
106 to 109 °C

---

System: corn (Ze)
PROTOCOL TEXT: Test Example 5: selectivity for a crop plant by soil treatment in upland field
Assay type: in vivo
Set-up: scale not given here
EXPERIMENTAL CONTEXT: dose 25 gai/10a, 21st day after treatment, index per Table 44
Catalogue of Ze (herbicidal effect index on crop) readings, one per entry.
// keep it numeric: no unit symbol after the value

Before answering, review these 5 worked examples.
# COMPOUND, TARGET OR SYSTEM, MEASUREMENT NAME, REPORTED RESULT
rows = [
    ("CC(C)C(c1cncnc1C(F)(F)F)N(C)C(=O)Cc1ccc(I)cc1 (racemic) [Compound 1-42]", "corn (Ze)", "Ze (herbicidal effect index on crop)", 0),
    ("CC(C)C(c1cncnc1C(F)(F)F)N(C)C(=O)COc1ccccc1 (racemic) [Compound 1-64]", "corn (Ze)", "Ze (herbicidal effect index on crop)", 0),
    ("CC(C)C(c1cncnc1C(F)(F)F)N(C)C(=O)C=Cc1ccccc1 (racemic) [Compound 1-85]", "corn (Ze)", "Ze (herbicidal effect index on crop)", 0),
    ("Cc1ccc(CC(=O)N(C)C(c2cncnc2C)C(C)C)cc1 (racemic) [Compound 1-89]", "corn (Ze)", "Ze (herbicidal effect index on crop)", 2),
    ("CC(C)C(c1cncnc1C(F)(F)F)N(C)C(=O)COc1ccc(Cl)cc1 (racemic) [Compound 1-65]", "corn (Ze)", "Ze (herbicidal effect index on crop)", 0),
]

Alright, here's another compound for you.
Request - read-out Ze (herbicidal effect index on crop) | tested on corn (Ze) | compound CC(C)C(c1cncnc1C(F)(F)F)N(C(=O)Cc1ccc(Cl)cc1)C1CC1 (racemic) [Compound 1-81]
0

---

Overview of recorded herbicidal effects, Se (green foxtail) for various compounds
Tested on: green foxtail (Se)
PROTOCOL TEXT: Test Example 2: herbicidal effects by upland soil treatment;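 note: 0-5 growth inhibition grade; 5 = over 90%; 4 = 70-90%; 3 = 50-70%; 2 = 30-50%; 1 = 10-30%; 0 = under 10%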
Assay type: in vivo
EXPERIMENTAL CONTEXT: dose 100 g active ingredient per 10 ares, examined on the 21st day after treatment, standards of Table 44
Lab note: write the figure by itself, no unit.

# COMPOUND, herbicidal effects, Se (green foxtail)
measured = [
    ("CC(C)c1ncncc1C(C(C)C)N(C)C(=O)Cc1ccc(Cl)cc1 (racemic)", 5),
    ("CCCC(c1cncnc1C(F)(F)F)N(C)C(=O)Cc1ccc(Cl)cc1 (racemic)", 5),
    ("CCN(C(=O)Cc1ccc(C)cc1)C(c1cncnc1C(F)F)C(C)C (racemic)", 4),
    ("CC(C)C(c1cncnc1C(F)(F)F)N(C)C(=O)COc1ccccc1 (racemic)", 5),
    ("COCN(C(=O)Cc1ccc(Cl)cc1)C(c1cncnc1C(F)(F)F)C(C)C (stereo not shown)", 5),
    ("CCC(C)C(c1cncnc1C(F)(F)F)N(C)C(=O)Cc1ccc(C)cc1 (mixture of isomers)", 5),
    ("Cc1ccccc1CC(=O)N(C)C(c1cncnc1C(F)(F)F)C(C)C (racemic)", 5),
    ("Cc1ccc(CC(=O)N(C)C(c2cncnc2C(F)(F)F)C(C)C)cc1Cl (racemic)", 4),
]

Give the measured herbicidal effects, Se (green foxtail) of Cc1ccc(CC(=O)N(C)C(c2ccc(F)cc2)c2cncnc2C(F)(F)F)cc1 (racemic) .
5

Field entry: CC(C)C(c1cncnc1)N(C)C(=O)Cc1ccc(Cl)cc1 (racemic)
5

Request: CC(C)C(c1cncnc1C(F)(F)F)N(C)C(=O)Cc1ccc(Cl)c(F)c1 (racemic)
5

Quick one: CC(C)C(c1cncnc1C(F)(F)F)N(C)C(=O)Sc1ccccc1 (racemic)
4

Param item: CN(C(=O)Cc1ccc(F)cc1)C(c1cncnc1C(F)(F)Cl)C1CC1 (racemic)
5

And for CC(C)C(c1cncnc1C(F)(F)F)N(C)C(=O)Cc1ccc(Cl)cc1F (racemic) ?
5

Entry to check: CC(C)C(c1cncnc1C(F)(F)F)N(C)C(=O)Cc1ccc(C(F)(F)F)cc1 (racemic)
5

// query: CC(C)C(c1cncnc1C(F)(F)F)N(C)C(=O)Cc1ccccc1F (racemic)
5

---

Tested on: rice (Or)
PROTOCOL TEXT: Test Example 4: selectivity for a crop plant by flooded paddy field treatment
Assay type: in vivo
Parameters: scale not given here
EXPERIMENTAL CONTEXT: rice transplanted at second leaf stage, dose 25 gai/10a, 21st day after treatment, index per Table 44
MEASUREMENT NAME: Or (herbicidal effect index on crop)
Write no unit; give the number alone.

Worked cases, Or (herbicidal effect index on crop) given:
# COMPOUND, TARGET OR SYSTEM, MEASUREMENT NAME, REPORTED RESULT
data = [
    ("Cc1cc(CC(=O)N(C)C(c2cncnc2C(F)(F)F)C(C)C)ccc1Cl (racemic) [Compound 1-120]", "rice (Or)", "Or (herbicidal effect index on crop)", 0),
    ("CN(C(=O)Cc1ccsc1)C(c1cncnc1C(F)(F)F)C1(C)CC1 (racemic) [2-56]", "rice (Or)", "Or (herbicidal effect index on crop)", 1),
    ("CN(C(=O)Cc1ccc(F)cc1)C(c1ccc(F)cc1)c1cncnc1C(F)(F)F (racemic) [1-218]", "rice (Or)", "Or (herbicidal effect index on crop)", 1),
]

If you can, please state the reported Or (herbicidal effect index on crop) value of CN(C(=O)Cc1ccc(Cl)s1)C(c1cncnc1C(F)(F)F)C1(C)CC1 (racemic) [2-58] .
1

Next compound: C#CCN(C(=O)Cc1ccc(F)c(F)c1)C(c1cncnc1C(F)(F)F)C(C)C (racemic) [1-614]
1

How about this compound: CN(C(=O)Cc1ccc(Cl)cc1)C(c1ccc(F)cc1)c1cncnc1C(F)(F)F (racemic) [1-219]
1

Record: CCN(C(=O)Cc1ccc(Cl)cc1F)C(c1cncnc1C(F)(F)F)C(C)C (racemic) [1-321]
1

Queued: COCN(C(=O)Cc1ccc(C)cc1)C(c1cncnc1C(F)(F)F)C(C)C (racemic) [Compound 1-106]
0

Could you do the same for CC(c1cncnc1C(C)(C)C)N(C)C(=O)Cc1ccc(Cl)cc1 (racemic) [1-190] , please?
0

# iterate: CCCc1ncncc1C(CCC)N(C)C(=O)Cc1ccc(F)cc1 (racemic) [1-493]
1

Also, CC(C)C(c1cncnc1C(F)(F)F)N(C)C(=O)Cc1ccsc1 (racemic) [2-2] please.
1

---

Test system: green foxtail (Se)
PROTOCOL TEXT: Test Example 2: herbicidal effects by upland soil treatment;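 note: 0-5 growth inhibition grade; 5 = over 90%; 4 = 70-90%; 3 = 50-70%; 2 = 30-50%; 1 = 10-30%; 0 = under 10%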
Assay type: in vivo
EXPERIMENTAL CONTEXT: dose 100 g active ingredient per 10 ares, examined on the 21st day after treatment, standards of Table 44
Entries and their herbicidal effects, Se (green foxtail)

Dear colleague, I am looking for the recorded herbicidal effects, Se (green foxtail) of the following compound: CCc1ccc(CC(=O)N(C)C(c2cncnc2C(F)(F)F)C(C)C)cc1 (racemic)
5

Then this compound: CC(C(=O)N(C)C(c1cncnc1C(F)(F)F)C(C)C)c1ccccc1 (mixture of isomers)
5

Field entry: Cc1ccc(NC(=O)N(C)C(c2cncnc2C(F)(F)Cl)C(C)C)cc1 (centres unmarked)
5

Also CSc1ncncc1C(C(C)C)N(C)C(=O)Cc1ccc(C)cc1 (racemic) ?
5

Same for CC(C)C(c1cncnc1C1CC1)N(C)C(=O)Cc1ccc(F)cc1 (racemic)
5

# repeat for CCN(C(=O)Cc1ccc(F)cc1)C(c1cncnc1C(F)(F)F)C(C)C (racemic)
5

Lookup Cc1ccc(CC(=O)N(C)C(c2cncnc2C2CC2)C(C)C)cc1 (racemic)
5

Subsequent entry: CC(C)C(c1cncnc1C(F)(F)F)N(C)C(=O)Cc1ccc(Cl)c(Cl)c1 (racemic)
5

Also Cc1ccccc1OCC(=O)N(C)C(c1cncnc1C(F)(F)F)C(C)C (racemic) , if possible.
5

Queued: CC(C)C(c1cncnc1C(F)(F)F)N(C)C(=O)Cc1cc(F)ccc1F (racemic)
4

Cool, now CCN(C(=O)Cc1ccccc1)C(c1cncnc1C(F)F)C(C)C (racemic)
5

Now the same for CC(C)C(c1cncnc1C(F)(F)F)N(C)C(=O)CCc1ccccc1 (racemic)
5

Record: CC(C)C(c1cncnc1C(F)(F)F)N(C)C(=O)COc1cccc(F)c1 (racemic)
5

And for CC(C)C(c1cncnc1C(F)F)N(C)C(=O)Cc1ccc(Cl)cc1 (racemic) ?
5

Consider next the compound CC(C)C(c1cncnc1C(F)(F)F)N(C)C(=O)Cc1ccc(F)cc1 (racemic) in the same way.
5

// repeat for CN(C(=O)Cc1ccc(Cl)cc1)C(c1ccccc1)c1cncnc1C(F)(F)F (racemic) and report
5

Record: CN(C(=O)Cc1ccccc1)C(c1cncnc1C(F)(F)Cl)C1CC1 (racemic)
5

Okay, and CC(C)C(c1cncnc1C(F)(F)Cl)N(C)C(=O)Nc1ccccc1 (racemic) ?
4

Would you mind doing CC(c1cncnc1C(C)(C)C)N(C)C(=O)Cc1ccc(Cl)cc1 (racemic) as well?
4
